Where do the numbers come from? From the RNAGym collection of RNA variant scans (doi:10.1093/nar/gkz1192).

B1: CPEB3 Ribozyme (parent)
chain: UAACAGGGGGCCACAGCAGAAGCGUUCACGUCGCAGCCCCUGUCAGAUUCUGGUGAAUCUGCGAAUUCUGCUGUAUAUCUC

Variants of: B1
Assay: self-cleavage, relative activity (ratio to wild type); higher = more cleavage; in vitro, sequencing
ASSAY_METRIC: self-cleavage
Quick one: just the number, no unit, thanks!

BIOPOLYMER_SEQUENCE: UAGCAGGGGGCCACAGCAGAAGCGUUCACGUCGCAGCCCCUGUCAGAUUCUGGUGAAUCUGCGAAUUCGGCUGUAUAUCUC [A3G U69G]
self-cleavage: 0.76

Please list self-cleavage recorded for the variant UAACAGUGGGCCACAGCAGAAGCGUUCACGUCGCAGCCCCUGUCAGGUUCUGGUGAAUCUGCGAAUUCUGCUGUAUAUCUC [G7U A47G]
0.29

Please list self-cleavage recorded for the variant UAACAGGUGGCCACAGCAGAAGCGUUCACGUCGCAGCCCCAGUCAGAUUCUGGUGAAUCUGCGAAUUCUGCUGUAUAUCUC [G8U U41A]
0.19
